# assayed-system: T1, pED208 TraM (plasmid pED208 (IncFV, derivative of …, UniProt P33788 1-127))
# T1 sequence: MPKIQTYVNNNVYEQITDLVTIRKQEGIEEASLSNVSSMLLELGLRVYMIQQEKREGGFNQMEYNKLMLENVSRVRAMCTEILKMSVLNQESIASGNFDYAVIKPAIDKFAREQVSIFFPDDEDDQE
# test-protocol: EMSA

>  <binder>
pED208 sbmA 24 bp (pED 4site, palindromic) (dsDNA) DNA 1: AGATTCGAATCTAGATTCGAATCT DNA 2: AGATTCGAATCTAGATTCGAATCT

>  <unit-name>
nM

>  <Kd>
4.8

$$$$
